tested on: STAPHYLOCOCCUS AUREUS 45; test: In vitro antibacterial activity, agar dilution MIC; assay type: cell-based; settings: 24 h
metric: MIC (µg/mL)
The reply should be a number in µg/mL, with the unit left off.

Example entries begin here.
• CC[C@H]1OC(=O)[C@H](C)[C@@H](O[C@H]2C[C@@](C)(OC)[C@@H](O)[C@H](C)O2)[C@H](C)[C@@H](O[C@@H]2O[C@H](C)C[C@H](N(C)C)[C@H]2O)[C@](C)(O)C[C@@H](C)[C@@H](N(C)C)[C@H](C)[C@@H](O)[C@H]1CO [Compound 11] = 6.2
• CC[C@H]1OC(=O)[C@H](C)[C@@H](O[C@H]2C[C@@](C)(OC)[C@@H](O)[C@H](C)O2)[C@H](C)[C@@H](O[C@@H]2O[C@H](C)C[C@H](N(C)C)[C@H]2O)[C@](C)(O)C[C@@H](C)[C@@H](N(C)C)[C@H](C)[C@@H](O)[C@@]1(O)CN(C)C [Compound 18] = 1.56
• CC[C@H]1OC(=O)[C@H](C)[C@@H](O[C@H]2C[C@@](C)(OC)[C@@H](O)[C@H](C)O2)[C@H](C)[C@@H](O[C@@H]2O[C@H](C)C[C@H](N(C)C)[C@H]2O)[C@](C)(O)C[C@@H](C)[C@@H](N(C)C)[C@H](C)[C@@H](O)[C@@]1(O)CNC [Compound 17] = 6.2
• CC[C@H]1OC(=O)[C@H](C)[C@@H](O[C@H]2C[C@@](C)(OC)[C@@H](O)[C@H](C)O2)[C@H](C)[C@@H](O[C@@H]2O[C@H](C)C[C@H](N(C)C)[C@H]2O)[C@](C)(O)C[C@@H](C)[C@@H](N(C)C)[C@H](C)[C@@H](O)[C@@]1(O)CO [Compound 10] = 25

Incoming: Any idea what its MIC is? The molecule is CC[C@H]1OC(=O)[C@H](C)[C@@H](O[C@H]2C[C@@](C)(OC)[C@@H](O)[C@H](C)O2)[C@H](C)[C@@H](O[C@@H]2O[C@H](C)C[C@H](N(C)C)[C@H]2O)[C@](C)(O)C[C@@H](C)[C@@H](N)[C@H](C)[C@@H](O)[C@@]1(O)CNCc1ccccc1 [Compound 14]
Outgoing: 6.2

Incoming: For CC[C@H]1OC(=O)[C@H](C)[C@@H](O[C@H]2C[C@@](C)(OC)[C@@H](O)[C@H](C)O2)[C@H](C)[C@@H](O[C@@H]2O[C@H](C)C[C@H](N(C)C)[C@H]2O)[C@](C)(O)C[C@@H](C)[C@@H](N(C)C)[C@H](C)[C@@H](O)[C@@]1(O)CN(C)Cc1ccccc1 [Compound 16] , what is its reported MIC?
Outgoing: 6.2

Measured values drawn from patent US5217960A for this set.
